Ref: patent US20250270319A1

- TARGET: human CD33 on primary human dendritic cells (human, UniProt P20138 18-364)
- Sequence (P20138 18-364): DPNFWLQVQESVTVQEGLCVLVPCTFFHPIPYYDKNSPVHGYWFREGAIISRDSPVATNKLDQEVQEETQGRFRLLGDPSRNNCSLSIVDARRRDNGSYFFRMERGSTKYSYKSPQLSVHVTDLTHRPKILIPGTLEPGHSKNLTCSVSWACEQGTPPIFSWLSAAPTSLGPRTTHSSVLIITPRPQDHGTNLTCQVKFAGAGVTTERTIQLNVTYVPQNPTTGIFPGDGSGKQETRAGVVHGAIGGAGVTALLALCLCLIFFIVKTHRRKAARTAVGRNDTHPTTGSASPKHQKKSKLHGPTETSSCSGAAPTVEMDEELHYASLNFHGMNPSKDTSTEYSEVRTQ
- PROTOCOL_SUMMARY: cell-based or functional assay
MEASURED_ATTRIBUTE: Receptor downregulation, (pM, EC50) (pM)
Just the number in pM, nothing appended.

Please fill in: Receptor downregulation, (pM, EC50) reported for anti-CD33 antibody 6C7H54 (antibody, IgG1, V domains shown, VH/VL only; also called 6C7H54 IgG1; 6C754) VH: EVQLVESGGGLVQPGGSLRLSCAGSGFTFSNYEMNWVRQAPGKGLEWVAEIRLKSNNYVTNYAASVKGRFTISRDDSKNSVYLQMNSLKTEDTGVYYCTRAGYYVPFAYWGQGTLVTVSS VL: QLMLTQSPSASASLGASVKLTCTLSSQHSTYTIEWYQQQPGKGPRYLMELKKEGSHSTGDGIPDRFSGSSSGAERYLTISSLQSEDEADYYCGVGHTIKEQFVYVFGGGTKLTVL = 30.2

Please fill in: Receptor downregulation, (pM, EC50) reported for anti-CD33 antibody 6C7H8 (antibody, IgG1, V domains shown, VH/VL only; also called 6C7H8 IgG1; parental antibody) VH: EVQLVESGGGLVQPGGSLRLSCAGSGFTFSNYCMNWVRQAPGKGLEWVAEIRLKSNNYVTNYAASVKGRFTISRDDSKNSVYLQMNSLKTEDTGVYYCTRAGYYVPFAYWGQGTLVTVSS VL: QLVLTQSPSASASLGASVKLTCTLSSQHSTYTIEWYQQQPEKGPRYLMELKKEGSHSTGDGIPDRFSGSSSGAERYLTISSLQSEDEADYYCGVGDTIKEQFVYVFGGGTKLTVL = 77.9

Please fill in: Receptor downregulation, (pM, EC50) reported for 6C7H8 IgG1 LALAPS (antibody, V domains shown) VH: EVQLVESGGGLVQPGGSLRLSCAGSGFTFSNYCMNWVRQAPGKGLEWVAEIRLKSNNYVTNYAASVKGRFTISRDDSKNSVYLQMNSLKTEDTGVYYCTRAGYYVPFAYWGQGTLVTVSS VL: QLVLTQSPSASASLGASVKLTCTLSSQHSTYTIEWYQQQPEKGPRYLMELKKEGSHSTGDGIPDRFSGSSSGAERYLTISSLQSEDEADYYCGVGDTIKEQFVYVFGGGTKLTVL = 83.7

Please fill in: Receptor downregulation, (pM, EC50) reported for anti-CD33 antibody 6C7H10 (antibody, IgG1, V domains shown, VH/VL only; also called 6C7H10 IgG1) VH: EVQLVESGGGLVQPGGSLRLSCAASGFTFSEYAMNWVRQAPGKGLEWVGEIRLKSNNYVTNYAASVKGRFTISRDDSKNSVYLQMNSLKTEDTGVYYCTRAGYYVPFAYWGQGTLVTVSS VL: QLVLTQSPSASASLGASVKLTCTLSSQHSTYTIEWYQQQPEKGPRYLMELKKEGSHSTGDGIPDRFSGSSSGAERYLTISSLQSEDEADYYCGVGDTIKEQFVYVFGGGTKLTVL = 778
